# System: HCC-44
# protocol-summary: relative viability (nuclei count vs DMSO), 5 days (fraction); higher = more cells survive
# settings: first compound 50 µM
In this section, each of the compounds is paired with its reported relative viability.

compound: O=C(O)CCCCC(CCSCc1ccccc1)SCc1ccccc1 (stereo not drawn) [CPI-613] + CS(=O)(=O)N1CCN(Cc2cc3nc(-c4cccc5[nH]ncc45)nc(N4CCOCC4)c3s2)CC1 [Pictilisib] (partner 1 µM)
relative viability: 0.589

compound: O=C(O)CCCCC(CCSCc1ccccc1)SCc1ccccc1 (stereo not drawn) [CPI-613] + NC(=O)Nc1cc(-c2cccc(F)c2)sc1C(=O)N[C@H]1CCCNC1 [AZD7762] (partner 0.2 µM)
relative viability: 1.01

compound: O=C(O)CCCCC(CCSCc1ccccc1)SCc1ccccc1 (stereo not drawn) [CPI-613] + CCNC(=O)c1noc(-c2cc(C(C)C)c(O)cc2O)c1-c1ccc(CN2CCOCC2)cc1 [Luminespib] (partner 0.01 µM)
relative viability: 1.04
